Kindly state pKd for each of the entries shown.
# TARGET OR TEST SYSTEM: T1, Recombinant soluble extracellular domain of cynomolgus monkey MerTK (cynomolgus monkey, UniProt Q12866 21-505 (human entry))
# T1 construct: SPR analyte; also called cMerTK; Cynomolgus MerTK
# T1 chain: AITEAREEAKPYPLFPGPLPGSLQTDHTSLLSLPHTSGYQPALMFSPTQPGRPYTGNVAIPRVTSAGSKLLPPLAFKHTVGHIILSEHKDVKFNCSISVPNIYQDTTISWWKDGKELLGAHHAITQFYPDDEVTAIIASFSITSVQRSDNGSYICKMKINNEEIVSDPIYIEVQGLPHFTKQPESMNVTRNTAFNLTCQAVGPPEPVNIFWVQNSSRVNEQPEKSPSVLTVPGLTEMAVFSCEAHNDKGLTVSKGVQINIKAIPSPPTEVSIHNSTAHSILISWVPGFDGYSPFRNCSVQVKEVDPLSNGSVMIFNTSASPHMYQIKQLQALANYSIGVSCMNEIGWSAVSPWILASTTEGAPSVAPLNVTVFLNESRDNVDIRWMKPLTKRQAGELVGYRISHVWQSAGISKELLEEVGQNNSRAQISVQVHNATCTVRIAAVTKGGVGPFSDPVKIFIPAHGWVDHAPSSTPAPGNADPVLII
# TEST: SPR, mAb captured, soluble MerTK ECD as analyte, 37 C
Answers are plain numbers, as −log10 of the molar value.

{"BINDER": "HuMAb 25J80 (antibody, human IgG1, kappa, V domains shown, Human anti-hMerTK mAb, Bin 2, derived from HuMAb 25B10 by optimization) VH: QVQLVQSGAEVKKPGASVKVSCKTSGRTFIRYYMHWVRQAPGQGLEWMGIIWPNGDQTTYAQKFQGRVTMTRDTSTSTVYMELSSLRSEDTAVYYCATTYKYAMDVWGQGTTVTVSS VL: EIVLTQSPGTLSLSPGERATLSCRASQSVRSNYLAWYQQKPGQAPRLLIYGASSRATGIPDRFSGSGSGTDFTLTISRLEPEDFAVYYCQQYESPPRTFGQGTKVEIKR", "pKd": 8.35}
{"BINDER": "HuMAb 1B4 (antibody, human IgG1, kappa, V domains shown, Human anti-hMerTK mAb, Bin 1) VH: QLQLQESGPGLVKPSETLSLTCAVSGYSISSGNYWGWIRQSPGKGLEWIGSVDHSGSTYYSPSLKSRVTISVDTSKNQFSLKLNSVTAADTADYYCARNTMIRGVMDWFDPWGQGTLVTVSS VL: AIQLTQSPSSLSASVGDRVTITCRASQGISSALAWYQQKPGKAPKVLIYDASSLESGVPSRFSGSGSGTDFTLTISSLQPEDFATYYCQQFRSYPTFGQGTKVEIKR", "pKd": 7.26}

Now take the following binder into account.
Query: Report pKd for HuMAb 22I16 (antibody, human IgG1, kappa, V domains shown, Human anti-hMerTK mAb, Bin 1; also called 22116) VH: EVQLVESGGGLVQPGGSLRLSCAASGFTFSSYSMNWVRQAPGKGLEWVSYIISGSDTIFYADSVKGRFTISRDNAKNSLYLQMNSLRDEDTAVYYCARDETVVRGVINYFDYWGQGTLVTVSS VL: AIQLTQSPSSLSASVGDRVTITCRSSQGISSALAWYQQKPGKAPKLLIYDASSLESGVPSRFSGSGSGTDFTLTISSLQPEDFATYYCQQFISYPTFGQGTRLEIKR please.
Reply: 7.61

Data provenance is patent US20210395392A1.
